Answer each item with its documented relative viability.
- Test system: RERF-LC-KJ
- measurement.notes: relative viability (nuclei count vs DMSO), 5 days (fraction); higher = more cells survive
- condition.context: first compound 500 µM

Study these solved cases before continuing.
O=C(O)CCCCC(CCSCc1ccccc1)SCc1ccccc1 (stereo not given) [CPI-613] + Cc1nc(Nc2ncc(C(=O)Nc3c(C)cccc3Cl)s2)cc(N2CCN(CCO)CC2)n1 [Dasatinib] (partner 0.075 µM) ... 0.123
O=C(O)CCCCC(CCSCc1ccccc1)SCc1ccccc1 (stereo not given) [CPI-613] + Nc1nc2[nH]cc(CCc3ccc(C(=O)N[C@@H](CCC(=O)O)C(=O)O)cc3)c2c(=O)[nH]1 [Pemetrexed] (partner 0.2 µM) ... 0.312
O=C(O)CCCCC(CCSCc1ccccc1)SCc1ccccc1 (stereo not given) [CPI-613] + CC(=O)Nc1cccc(-n2c(=O)n(C3CC3)c(=O)c3c(Nc4ccc(I)cc4F)n(C)c(=O)c(C)c32)c1 [Trametinib] (partner 0.02 µM) ... 0.44
O=C(O)CCCCC(CCSCc1ccccc1)SCc1ccccc1 (stereo not given) [CPI-613] + C[C@]1(O)C[C@@H](c2nc(-c3ccc4ccc(-c5ccccc5)nc4c3)c3c(N)nccn32)C1 [Linsitinib] (partner 1 µM) ... 0.885

Q: Fill in: relative viability of O=C(O)CCCCC(CCSCc1ccccc1)SCc1ccccc1 (stereo not given) [CPI-613] + CS(=O)(=O)N1CCN(Cc2cc3nc(-c4cccc5[nH]ncc45)nc(N4CCOCC4)c3s2)CC1 [Pictilisib] (partner 1 µM) is ___
A: 0.438
